target: human S1P1 receptor (Homo sapiens); construct: membranes used; test: GTP γ35S binding assay for S1P1 activity; conditions: activity potency, S1P1 receptor from GTP γ35S binding; membranes, test range 0.08 to 5,000 nM
valueType: EC50 (nM)
Your answer is read as nM, so omit the unit and give the number.

EC50 for C/C(=N\OCC(Cc1ccc(C)c(C)c1)c1cccc(Cl)c1)c1ccc(CNCCC(=O)O)cc1 (stereo not drawn) [Compound 3] is 15.6

EC50 for C/C(=N\OCc1ccc(CNCCC(=O)O)cc1)C(Cc1ccc(C)c(C)c1)c1cc(F)cc(F)c1 (stereo not drawn) [Compound 7] is 6.8

EC50 for C/C(=N\OCC(Cc1ccc(C)c(C)c1)c1cccc(C)c1)c1ccc(CNCCC(=O)O)cc1 (stereo not drawn) [Compound 1] is 43.2

EC50 for C/C(=N\OCc1ccc(CNCCCP(=O)(O)O)cc1)C(Sc1ccc(C)c(C)c1)c1cccc(Cl)c1 (stereo not drawn) [Compound 10] is 8.34

EC50 for C/C(=N\OCc1ccc(CNCCCP(=O)(O)O)cc1)C(Cc1ccc(C)c(C)c1)c1cc(F)cc(F)c1 (stereo not drawn) [Compound 6] is 0.88

EC50 for C/C(=N\OCC(Cc1ccc(C)c(C)c1)c1cccc(Cl)c1)c1ccc(CNCCCP(=O)(O)O)cc1 (stereo not drawn) [Compound 4] is 3.51

###

target: human S1P1 receptor (Homo sapiens, UniProt P21453); construct: membranes used; assay: GTP γ35S binding assay for S1P1 activity; settings: activity potency, S1P1 receptor from GTP γ35S binding; membranes, test range 0.08 to 5,000 nM
Sequence (P21453 whole entry): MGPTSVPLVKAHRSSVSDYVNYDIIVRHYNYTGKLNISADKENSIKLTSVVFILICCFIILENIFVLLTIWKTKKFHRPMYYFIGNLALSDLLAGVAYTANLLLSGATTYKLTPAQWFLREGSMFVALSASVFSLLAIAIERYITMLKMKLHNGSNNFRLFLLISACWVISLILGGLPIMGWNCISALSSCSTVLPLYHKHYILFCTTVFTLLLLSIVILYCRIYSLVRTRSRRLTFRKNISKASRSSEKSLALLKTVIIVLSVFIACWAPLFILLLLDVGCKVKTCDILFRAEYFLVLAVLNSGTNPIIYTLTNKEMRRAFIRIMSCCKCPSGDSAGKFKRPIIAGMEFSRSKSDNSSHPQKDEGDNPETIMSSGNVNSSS
valueType: EC50 (µM)
Your answer is read as µM, so omit the unit and give the number.

EC50 for C/C(=N\OCC(Oc1ccc(C)c(C)c1)c1cccc(Cl)c1)c1ccc(CNCCC(=O)O)cc1 (stereo not shown) is 0.216

EC50 for C/C(=N\OCc1ccc(CNCCCP(=O)(O)O)cc1)C(Cc1ccc(C)c(C)c1)c1cccc(Cl)c1 (stereo not shown) is 0.0022

EC50 for C/C(=N\OCC(Cc1ccc(C)c(C)c1)c1cccc(C)c1)c1ccc(CNCCCP(=O)(O)O)cc1 (stereo not shown) is 0.0234

EC50 for C/C(=N\OCC(Oc1ccc(C)c(C)c1)c1cccc(Cl)c1)c1ccc(CNCCCP(=O)(O)O)cc1 (stereo not shown) is 0.0114
